B1: Caulobacter ParB omega fusion; a variant is named by its letters at X, in order, B8GW30 (parent)
chain: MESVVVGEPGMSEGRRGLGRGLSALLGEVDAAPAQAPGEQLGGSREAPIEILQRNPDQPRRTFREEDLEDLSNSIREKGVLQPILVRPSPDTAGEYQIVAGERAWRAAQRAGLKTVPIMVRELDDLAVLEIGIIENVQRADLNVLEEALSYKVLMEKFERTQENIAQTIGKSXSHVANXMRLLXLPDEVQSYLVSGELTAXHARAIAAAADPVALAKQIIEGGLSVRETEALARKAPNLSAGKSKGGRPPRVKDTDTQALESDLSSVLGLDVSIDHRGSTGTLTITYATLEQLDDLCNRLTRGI

Variants of: B1
Assay: one-hybrid fitness for binding NBS DNA (the Noc-binding site; scaled: cognate 1, non-cognate 0); higher = stronger binding
Settings: with NBS DNA site
The full ranking holds about 81,000 sequences; the median of “one-hybrid fitness for binding NBS DNA” is about -0.1, and the highest 2% start at about 0.36. The full list was thinned out, with the highest values kept by preference.
Give one-hybrid fitness for binding NBS DNA for every item shown.
Field format: numeric only.

For the variant "RLQR" , what one-hybrid fitness for binding NBS DNA is on record?
0.43

For the variant "KRRH" , what one-hybrid fitness for binding NBS DNA is on record?
0.422

For the variant "QKAR" , what one-hybrid fitness for binding NBS DNA is on record?
0.606

For the variant "QANA" , what one-hybrid fitness for binding NBS DNA is on record?
0.257

For the variant "QRNA" , what one-hybrid fitness for binding NBS DNA is on record?
0.632

For the variant "QSFR" , what one-hybrid fitness for binding NBS DNA is on record?
0.37

For the variant "KRES" , what one-hybrid fitness for binding NBS DNA is on record?
0.264

For the variant "RLLR" , what one-hybrid fitness for binding NBS DNA is on record?
0.32

For the variant "KRHS" , what one-hybrid fitness for binding NBS DNA is on record?
0.464

For the variant "RLIR" , what one-hybrid fitness for binding NBS DNA is on record?
0.21

For the variant "RLRR" , what one-hybrid fitness for binding NBS DNA is on record?
0.673

For the variant "RLCS" , what one-hybrid fitness for binding NBS DNA is on record?
0.334
